Molecular target: HSV Pol and UL42 (Human herpesvirus 1)
Construct: made in house; host or cells: insect cells infected with recombinant baculoviruses
Sequence (P10226 whole entry): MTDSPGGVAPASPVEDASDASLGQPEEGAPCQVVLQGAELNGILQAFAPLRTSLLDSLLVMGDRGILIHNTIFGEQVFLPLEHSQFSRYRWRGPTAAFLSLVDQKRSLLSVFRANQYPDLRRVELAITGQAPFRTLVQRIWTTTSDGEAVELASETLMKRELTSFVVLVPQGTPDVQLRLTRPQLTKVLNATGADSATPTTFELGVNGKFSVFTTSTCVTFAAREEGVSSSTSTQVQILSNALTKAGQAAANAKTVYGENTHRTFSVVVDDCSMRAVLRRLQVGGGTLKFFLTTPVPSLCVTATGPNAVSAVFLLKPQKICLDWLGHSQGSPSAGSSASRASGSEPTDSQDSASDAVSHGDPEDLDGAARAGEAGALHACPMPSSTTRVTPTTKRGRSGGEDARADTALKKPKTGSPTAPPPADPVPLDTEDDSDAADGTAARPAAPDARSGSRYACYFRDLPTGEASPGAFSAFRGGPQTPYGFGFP
Experiment: Inhibition of UL42-mediated long-chain DNA synthesis (polymerase assay, poly(dA)/oligo(dT) primer/template)
Assay type: biochemical
Source text: To perform structure-activity studies, “alanine scan” mutants of peptide E, in which each non-alanine residue was individually converted to an alanine, were synthesized and tested for their ability to inhibit long-chain DNA synthesis by Pol and UTL42. A poly(dA)/oligo(dT15) template/primer was employed. […] DNA products greater than 18 bases were quantified at varying peptide concentrations and expressed as a percentage of products formed by Pol/UL42 in the presence of vehicle control. […]
pIC50: −log10 of the molar value.
measurement.name: pIC50

substance | measurement.name | observed.result
Ac-ATAEETRRMLARAFDTLA-NH2 (N-terminus and C-terminus assumed) [Peptide H29A] | pIC50 | < 4.00
Ac-ATAEETRRMLHAAFDTLA-NH2 (N-terminus and C-terminus assumed) [Peptide R30A] | pIC50 | < 4.00

Attention now shifts to the item below.
# returns recorded pIC50 (system: HSV Pol and UL42 (Human herpesvirus 1)) for Ac-ATAEETRRALHRAFDTLA-NH2 (N-terminus and C-terminus assumed) [Peptide M27A]
< 4.00
